- Assay overview: Colloidal solubilization of corticosteroid with non-ionic surfactant and lecithin (Lipoid S 100)
- Type: physicochemical
- Applied conditions: pH 4.5, aqueous with cosolvent or surfactant or cyclodextrin, Solutrol HS 15 0.10 wt.%, Lipoid S100 1.5 wt.%; read-out: Budesonide solubilized
Observable: solubility (µg/mL)
Numbers only; they are read as µg/mL.

Asked: I have this compound here, CCCC1O[C@@H]2C[C@H]3[C@@H]4CCC5=CC(=O)C=C[C@]5(C)[C@H]4[C@@H](O)C[C@]3(C)[C@]2(C(=O)CO)O1 (stereo partly shown) [Budesonide, budesonide] , and I need its recorded solubility.
Given back: 430

---

- Assay overview: Colloidal solubilization of corticosteroid with non-ionic surfactant and lecithin (Lipoid S 100)
- Format: physicochemical
- Applied conditions: pH 4.5, aqueous with cosolvent or surfactant or cyclodextrin, Vitamin E TPGS 0.50 wt.%, Lipoid S100 2.0 wt.%; read-out: Budesonide solubilized
Observable: solubility

Asked: I have this compound here, CCCC1O[C@@H]2C[C@H]3[C@@H]4CCC5=CC(=O)C=C[C@]5(C)[C@H]4[C@@H](O)C[C@]3(C)[C@]2(C(=O)CO)O1 (stereo partly shown) [Budesonide, budesonide] , and I need its recorded solubility.
Given back: 800 µg/mL
